Cited source: patent US20240270821A1

# measuredTarget: hGLP-1R (Homo sapiens, UniProt P43220)
# Sequence (P43220 24-463): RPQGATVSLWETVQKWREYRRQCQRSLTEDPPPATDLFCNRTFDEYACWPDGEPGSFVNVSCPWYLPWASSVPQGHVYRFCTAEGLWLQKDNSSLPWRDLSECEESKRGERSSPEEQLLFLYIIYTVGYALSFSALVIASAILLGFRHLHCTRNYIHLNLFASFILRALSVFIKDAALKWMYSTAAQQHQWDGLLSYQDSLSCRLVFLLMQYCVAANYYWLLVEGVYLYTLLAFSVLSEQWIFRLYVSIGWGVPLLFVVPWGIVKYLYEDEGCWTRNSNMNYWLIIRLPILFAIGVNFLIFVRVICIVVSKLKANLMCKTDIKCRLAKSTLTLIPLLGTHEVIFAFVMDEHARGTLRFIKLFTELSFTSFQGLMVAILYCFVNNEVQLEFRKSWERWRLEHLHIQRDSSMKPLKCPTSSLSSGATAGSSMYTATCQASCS
# assayOverview: cell-based or functional assay
metricName: Relative cAMP EC50 (nM)
Report only the number, with the unit nM understood.

binder	number
YXQGTFTSDFSXXLDKKAQXAFIEYLLAGGPSSGAPPPEGSEE (Aib, Orn, αMeL; acylated Lys; C-terminal amide; synthetic construct; SITE 2: note = 2-Aminoisobutyric Acid; SITE 12: note = L-ornithine; SITE 13: note = alpha-methyl-leucine; SITE 17: note = Lysine is chemically modified through conjugation of the epsilon-amino group of the Lysine side chain with (gamma-Glu)2-CO-(CH2)16-CO2H; SITE 20: note = 2-Am) [Example 1051]	8.3
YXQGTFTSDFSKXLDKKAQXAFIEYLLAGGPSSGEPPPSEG (Aib, αMeL; acyl on Lys; C-terminal amide; synthetic construct; SITE 2: note = 2-Aminoisobutyric Acid; SITE 13: note = alpha-methyl-leucine; SITE 17: note = Lysine is chemically modified through conjugation of the epsilon-amino group of the Lysine side chain with (2-[2-(2-Amino-ethoxy)-ethoxy]-acetyl)-(gamma-Glu)-CO-(CH2) 16-CO2H; SITE 20: n) [Example 22]	2.94

Could you now consider this next binder?
stdin: Given YXQGTFTSDXSQXLDXKAQXQFIEXLIEXGPSSGEPPPSGSEE (non-natural residues, acylated Lys (AEEA-γGlu-C18 diacid), C-terminal amide; synthetic construct; SITE 2: note = 2-Aminoisobutyric Acid; SITE 10: note = 3-(4-Pyridyl)-L-alanine; SITE 13: note = alpha-methyl-leucine; SITE 16: note = L-ornithine; SITE 17: note = Lysine is chemically modified through conjugation of the epsilon-amino group of the Lysine side chain with (2-[2-(2-) [Example 1098] , state its recorded Relative cAMP EC50.
stdout: 1.22
